Numbers sourced from paper PMC10441475.

Target: METTL3 WT;METTL14 R298P (Homo sapiens;Homo sapiens, UniProt Q86U44;Q9HCE5 1-580;1-456, |R298P)
Sequence (Q86U44 whole entry, chain 1 of 2): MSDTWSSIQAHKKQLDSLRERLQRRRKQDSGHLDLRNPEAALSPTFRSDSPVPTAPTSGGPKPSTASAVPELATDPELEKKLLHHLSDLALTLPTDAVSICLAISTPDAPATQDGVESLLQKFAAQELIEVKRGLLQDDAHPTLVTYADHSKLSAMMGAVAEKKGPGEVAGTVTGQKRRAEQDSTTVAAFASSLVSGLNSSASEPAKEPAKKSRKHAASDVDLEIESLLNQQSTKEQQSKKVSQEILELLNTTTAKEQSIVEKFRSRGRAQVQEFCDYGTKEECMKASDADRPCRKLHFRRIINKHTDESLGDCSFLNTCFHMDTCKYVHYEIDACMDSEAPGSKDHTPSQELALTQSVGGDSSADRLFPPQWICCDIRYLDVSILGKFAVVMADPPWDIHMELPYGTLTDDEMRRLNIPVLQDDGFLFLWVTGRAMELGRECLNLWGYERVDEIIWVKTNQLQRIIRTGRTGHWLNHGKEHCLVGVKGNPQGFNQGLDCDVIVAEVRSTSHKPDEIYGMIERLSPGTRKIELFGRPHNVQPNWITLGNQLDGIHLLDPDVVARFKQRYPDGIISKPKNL
Sequence (Q9HCE5 whole entry R298P, chain 2 of 2): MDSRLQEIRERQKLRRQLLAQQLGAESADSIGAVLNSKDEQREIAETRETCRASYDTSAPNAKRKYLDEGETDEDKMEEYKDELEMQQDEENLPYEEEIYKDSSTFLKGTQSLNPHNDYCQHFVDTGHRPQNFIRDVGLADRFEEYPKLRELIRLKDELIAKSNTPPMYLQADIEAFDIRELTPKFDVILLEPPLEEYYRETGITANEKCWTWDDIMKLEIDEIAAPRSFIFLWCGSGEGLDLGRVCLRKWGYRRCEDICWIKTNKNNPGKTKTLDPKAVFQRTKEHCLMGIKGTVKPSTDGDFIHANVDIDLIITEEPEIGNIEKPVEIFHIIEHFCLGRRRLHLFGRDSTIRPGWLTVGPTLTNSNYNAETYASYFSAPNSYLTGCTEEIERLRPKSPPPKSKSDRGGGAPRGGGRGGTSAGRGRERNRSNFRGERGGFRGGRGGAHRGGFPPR
Test: SPR; two-state model; FP: 10 mM HEPES pH 7.5, 50 mM KCl, 5 nM RNA; SPR: 10 mM HEPES pH 7.5, 150 mM KCl, 0.05% P20, 25 C; 2-Ap: 50 mM Tris pH 8.0, 10 mM MgCl2, 0.5 uM RNA, read at 37
Conditions: protein: recombinant;recombinant; tags: His-tag removed by TEV;; copies: 1;1; bulged stem-loop
recorded.metric: Kd (nM)
Answers are plain numbers, in nM.

Endpoint output: Kd of GCCUAGUAGCAGAGAGGACUGCUCCUUGGU (structured_RNA, m6A at position 18) [rNEAT2-m6A (biotinyl)] . Value?
538

// below: Kd requested for another binder
Using the record for GCCUAGUAGCAGAGAGGACUGCUCCUUGGU (structured_RNA) [rNEAT2 (biotinyl)] , report its Kd.
356
